Recorded values, source patent US20110274651A1.

# Measured on: tubulin
# Construct: other: double reciprocal plots; 0-100 μM ligand, 2 μM tubulin, 45 min at
# Measurement protocol: Tubulin binding assay (fluorescence titration, quenching of intrinsic tubulin fluorescence)
# Parameters: species or system Mammalian
# Condition description: double reciprocal plots; 0-100 μM ligand, 2 μM tubulin, 45 min at 37° C.; read-out: dissociation constant (Kd) binding to tubulin
Measured Kd of individual entries
Property: Kd (µM)

* COc1ccc2c(c1OC)C(=O)O[C@@H]2[C@H]1c2c(c(I)c3c(c2OC)OCO3)CCN1C | 22
* COc1ccc2c(c1OC)C(=O)O[C@@H]2[C@H]1c2c(c(F)c3c(c2OC)OCO3)CCN1C | 81
